Source: ChEMBL document CHEMBL2321812

# test_name: Oral bioavailability in female ICR mouse measured from AUC (0 to infinity) at 5 mg/kg
# Format: ADME, organism-based
# condition_parameters: in vivo
assay_metric: bioavailability (%)
Hi! Could you send only the number? It should be in %, unit omitted.

## Input Would you mind telling me what bioavailability value was observed for CS(=O)(=O)c1ccc(-c2nnc(/C=C/c3nnc(-c4ccc(C#N)cc4)o3)n2-c2ccccc2Cl)nc1 ?
## Output 59

----------
# test_name: Oral bioavailability in female ICR mouse measured from AUC (0 to t) at 5 mg/kg
# Format: ADME, organism-based
# condition_parameters: in vivo
assay_metric: bioavailability

## Input Would you mind telling me what bioavailability value was observed for CS(=O)(=O)c1ccc(-c2nnc(/C=C/c3nnc(-c4ccc(C#N)cc4)o3)n2-c2ccccc2Cl)nc1 ?
## Output 72.7%

----------
// values below are reported half-life
# test_name: Half life in human liver microsomes
# Type: ADME, Microsome
Hi! Could you send only the number? It should be in min, unit omitted.

chemical_structure=N#Cc1ccc(-c2nnc(CSc3nnc(-c4ccncc4)n3-c3ccccc3Cl)o2)cc1 assay_metric=half-life test_value=2.4
chemical_structure=Oc1cc(-c2nnc(/C=C/c3nnc(-c4ccc(F)cc4)n3-c3ccccc3Cl)o2)ccn1 assay_metric=half-life test_value=128
chemical_structure=Cc1cc2nc(CSc3nnc(-c4ccncc4)n3-c3ccccc3Cl)cc(=O)n2cc1C assay_metric=half-life test_value=7

## Input Would you mind telling me what half-life value was observed for COc1ccc(-n2c(NCc3nc(-c4ccc(C)cc4)no3)nnc2-c2ccncc2)cc1 ?
## Output 6.5

## Input Would you mind telling me what half-life value was observed for COc1ccc(-n2c(SCc3nc(-c4ccc(C)cc4)no3)nnc2-c2ccncc2)cc1 ?
## Output 3

----------
# test_name: Tmax in female ICR mouse at 1 mg/kg, iv
# Format: ADME, organism-based
# Set-up: dose 1 mg/kg, route intravenous
# condition_parameters: in vivo
assay_metric: Tmax (min)
Hi! Could you send only the number? It should be in min, unit omitted.

## Input Would you mind telling me what Tmax value was observed for CS(=O)(=O)c1ccc(-c2nnc(/C=C/c3nnc(-c4ccc(C#N)cc4)o3)n2-c2ccccc2Cl)nc1 ?
## Output 30

----------
# test_name: Oral bioavailability in male ICR mouse measured from AUC (0 to t) at 5 mg/kg
# Assay type: ADME, organism-based
# condition_parameters: in vivo
assay_metric: bioavailability (%)
Hi! Could you send only the number? It should be in %, unit omitted.

## Input Would you mind telling me what bioavailability value was observed for CS(=O)(=O)c1ccc(-c2nnc(/C=C/c3nnc(-c4ccc(C#N)cc4)o3)n2-c2ccccc2Cl)nc1 ?
## Output 116

----------
# test_system: UniProt P08684
# Sequence (P08684 whole entry): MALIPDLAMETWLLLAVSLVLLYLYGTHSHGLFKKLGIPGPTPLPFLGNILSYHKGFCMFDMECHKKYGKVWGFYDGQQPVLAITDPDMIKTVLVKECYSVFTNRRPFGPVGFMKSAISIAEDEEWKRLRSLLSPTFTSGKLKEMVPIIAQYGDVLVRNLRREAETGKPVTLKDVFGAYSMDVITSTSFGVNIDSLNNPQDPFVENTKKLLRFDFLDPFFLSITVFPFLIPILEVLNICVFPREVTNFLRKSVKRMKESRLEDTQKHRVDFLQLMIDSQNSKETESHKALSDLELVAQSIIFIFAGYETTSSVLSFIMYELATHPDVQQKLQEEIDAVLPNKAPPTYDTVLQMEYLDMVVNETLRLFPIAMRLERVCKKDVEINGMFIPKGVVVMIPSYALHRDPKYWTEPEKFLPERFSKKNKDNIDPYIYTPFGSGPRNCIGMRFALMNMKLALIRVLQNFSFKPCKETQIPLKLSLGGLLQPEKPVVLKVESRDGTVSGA
assay_metric: IC50

## Input Given the entry CS(=O)(=O)c1ccc(-c2nnc(/C=C/c3nnc(-c4ccc(C#N)cc4)o3)n2-c2ccccc2Cl)nc1 , what IC50 was observed with UniProt P08684?
## Output > 25 µM

----------
# test_name: Clearance in male ICR mouse at 1 mg/kg, iv
# Format: ADME, organism-based
# Set-up: dose 1 mg/kg, route intravenous
# condition_parameters: in vivo
assay_metric: clearance (mL/min/kg)
Hi! Could you send only the number? It should be in mL/min/kg, unit omitted.

## Input Would you mind telling me what clearance value was observed for CS(=O)(=O)c1ccc(-c2nnc(/C=C/c3nnc(-c4ccc(C#N)cc4)o3)n2-c2ccccc2Cl)nc1 ?
## Output 10
